# test.protocol: Stability of the five compounds in SD rat plasma (QC samples, UHPLC-ESI-MS/MS)
# Format: in vitro ADME
# test.settings: SD rat plasma, nominal 1000 ng/mL, 3 freeze-thaw cycles, n=5
Reported stability, mean ± SD (measured concentration) values follow for various compounds
Provide the reading as a plain figure in ng/mL.

Reference set (3 entries):
Returns the measured stability, mean ± SD (measured concentration) for the input compound. Input: C=C1CC[C@@H]2[C@H]3[C@@H](CC[C@H]2C)[C@@H](C)C(=O)O[C@H]13
942

Returns the measured stability, mean ± SD (measured concentration) for the input compound. Input: C[C@@H]1CC[C@H]2[C@@H](C)C(=O)O[C@@H]3O[C@@]4(C)CC[C@@H]1[C@]32O4
1069

Returns the measured stability, mean ± SD (measured concentration) for the input compound. Input: C=C(C(=O)O)[C@@H]1CC[C@@H](C)[C@@H]2CCC(C)=C[C@@H]21
948

We now examine a further compound.
Returns the measured stability, mean ± SD (measured concentration) for the input compound. Input: CC1=C[C@H]2[C@@H](CC1)[C@H](C)CC[C@H]2[C@@H](C)C(=O)O [DHAA, Dihydroartemisinic acid]
914

###

# test.protocol: in vivo
# test.settings: male, Sprague Dawley, rat, po, 352 mg/kg, t1/2
parameter.measured: half-life (h)
Provide the reading as a plain figure in h.

Returns the measured half-life for the input compound. Input: C[C@@H]1CC[C@H]2[C@@H](C)C(=O)O[C@@H]3O[C@@]4(C)CC[C@@H]1[C@]32O4 [DEART, Deoxyartemisinin]
3.94

Returns the measured half-life for the input compound. Input: CC1=C[C@H]2[C@@H](CC1)[C@H](C)CC[C@H]2[C@@H](C)C(=O)O [DHAA, Dihydroartemisinic acid]
4.64

Returns the measured half-life for the input compound. Input: C=C(C(=O)O)[C@@H]1CC[C@@H](C)[C@@H]2CCC(C)=C[C@@H]21 [AA, Artemisinic acid]
4.29

We now examine a further compound.
Returns the measured half-life for the input compound. Input: C=C1CC[C@@H]2[C@H]3[C@@H](CC[C@H]2C)[C@@H](C)C(=O)O[C@H]13 [ARTI, Arteannuin I]
5.14

###

# test.protocol: in vivo
# test.settings: male, Sprague Dawley, rat, po, 100 mg/kg
parameter.measured: AUC(0-t) (ng·h/mL)
Provide the reading as a plain figure in ng·h/mL.

Returns the measured AUC(0-t) for the input compound. Input: C[C@@H]1CC[C@H]2[C@@H](C)C(=O)O[C@@H]3O[C@@]4(C)CC[C@@H]1[C@]32OO4 [ART, Artemisinin, reference compound]
386

###

# test.protocol: in vivo
# test.settings: male, Sprague Dawley, rat, po, 352 mg/kg, MRT(0-∞)
parameter.measured: MRT inf (h)
Provide the reading as a plain figure in h.

Reference set (2 entries):
Returns the measured MRT inf for the input compound. Input: C[C@@H]1CC[C@H]2[C@@H](C)C(=O)O[C@@H]3O[C@@]4(C)CC[C@@H]1[C@]32OO4 [ART, Artemisinin, reference compound]
2.54

Returns the measured MRT inf for the input compound. Input: CC1=C[C@H]2[C@@H](CC1)[C@H](C)CC[C@H]2[C@@H](C)C(=O)O [DHAA, Dihydroartemisinic acid]
6.08

We now examine a further compound.
Returns the measured MRT inf for the input compound. Input: C[C@@H]1CC[C@H]2[C@@H](C)C(=O)O[C@@H]3O[C@@]4(C)CC[C@@H]1[C@]32O4
6.12

Values from paper PMC12058161
